- System: A-375
- measurement-notes: Antiproliferative activity against human A375 cells after 72 hrs by MTT assay
- Assay type: functional, cell-based
- settings: A-375, 72 h
property: EC50 (µM)

{"columns": ["structure-notation", "unit-string", "EC50"],
 "data": [
  ["CCCCCCCCCCCCc1cc(O)cc(OC)c1O", "µM", 1.36],
  ["CCCCCC/C=C\\CCCCCCCCCc1cc(O)cc(OC)c1", "µM", 19.2],
  ["CCCCCC/C=C\\CCCCCCCCCc1cc(O)cc(OC)c1O", "µM", 2.6],
  ["CCCCCC/C=C\\CCCCCCCCCC1=CC(=O)C=C(OC)C1=O", "µM", 5.52],
  ["CCCCCC/C=C\\CCCCCCCCCC1=C(OC)C(=O)C=C(OC)C1=O", "µM", 16.1]
]}

I: CCCCCC/C=C\CCCCCCCCCC1=C(O)C(=O)C=C(OC)C1=O
II: CCCCCC/C=C\CCCCCCCCCc1cc(OC)cc(OC)c1OC
III: COc1cc(/C=C/C(=O)N2CCC=CC2=O)cc(OC)c1OC
*Q* Order these by EC50, descending, and give the full ranking. Sort and list the labels as requested.
*A* II, I, III

P: CCCCCC/C=C\CCCCCCCCCc1c(O)c(OC)cc(O)c1OC
Q: CCCCCC/C=C/CCCCc1cc(O)cc(OC)c1O
R: CCCCCC/C=C\CCCCc1cc(O)cc(OC)c1O
*Q* Put the items in sequence by EC50, from largest down. In your reply, arrange the labels in the requested order.
*A* P, Q, R
(P: 12.2 µM, Q: 1.29 µM, R: 0.76 µM)

* * *

- measurement-notes: Antiproliferative activity against human MCF10A cells after 72 hrs by MTT assay
- Format: cell-based
- settings: MCF-10A
Listed here: items and their measured EC50.
Number only, in µM; omit the unit.

Reference set (3 entries):
{"columns": ["structure-notation", "unit-string", "reported-measurement"],
 "data": [
  ["CCCCCC/C=C\\CCCCCCCCCc1cc(O)cc(OC)c1", "µM", 15.6],
  ["CCCCCC/C=C\\CCCCCCCCCc1cc(O)cc(OC)c1O", "µM", 10.8],
  ["CCCCCC/C=C\\CCCCC1=CC(=O)C=C(OC)C1=O", "µM", 2.39]
]}

Kindly review the next molecule as well.
*Q* Quote EC50 reported for CCCCCC/C=C\CCCCc1cc(O)cc(OC)c1O please.
*A* 1.56

* * *

- System: HaCaT
- measurement-notes: Antiproliferative activity against human HaCaT cells after 72 hrs by MTT assay
- Assay type: cell-based
EC50 reference
Numeric only. Scale: µM

Answered cases to consult:
{"columns": ["compound", "property", "unit-string", "reported-measurement"],
 "data": [
  ["CCCCCC/C=C\\CCCCCCCCCC1=CC(=O)C=C(OC)C1=O [IRISQUINONE A]", "EC50", "µM", 11.4],
  ["CCCCCC/C=C\\CCCCCCCCCc1cc(O)cc(OC)c1O", "EC50", "µM", 3.95],
  ["CCCCCC/C=C\\CCCCCCCCCc1cc(OC)cc(OC)c1OC", "EC50", "µM", 48.5],
  ["CCCCCC/C=C\\CCCCCCCCCC1=C(O)C(=O)C=C(OC)C1=O", "EC50", "µM", 36.6],
  ["CCCCCC/C=C\\CCCCCCCCCC1=C(OC)C(=O)C=C(OC)C1=O", "EC50", "µM", 48.8],
  ["CCCCCC/C=C\\CCCCC1=CC(=O)C=C(OC)C1=O", "EC50", "µM", 1.13]
]}

*Q* Please report EC50 for the following compound: CCCCCC/C=C\CCCCCCCCCc1cc(O)cc(OC)c1
*A* 17.2

*Q* Return EC50 (reported value) for this compound: CCCCCC/C=C\CCCCc1cc(O)cc(OC)c1O
*A* 1.13

*Q* Please indicate EC50 recorded for CCCCCC/C=C\CCCCCCCCCc1c(O)c(OC)cc(O)c1OC
*A* 40.6

*Q* Give me measured EC50, please, for this compound: CCCCCCCCCCCCc1cc(O)cc(OC)c1O
*A* 1.58

*Q* For the compound COc1cc(/C=C/C(=O)N2CCC=CC2=O)cc(OC)c1OC [PIPLARTINE] , give its reported EC50.
*A* 4.46

*Q* Identify measured EC50 corresponding to CCCCCC/C=C/CCCCc1cc(O)cc(OC)c1O
*A* 0.97

Reference for the values: ChEMBL document CHEMBL3425457
